Listed here: items and their measured cytotoxicity at 70.5 h.
PROCEDURE_TEXT: Human HepG2 cell viability assay in 384 well format
Assay type: toxicity, cell-based
Design: dose 125 nL, time 70.5 hour; concentration not given beside the values
RUN_PARAMETERS: HepG2 cells, read-out: Inhibition
Please give the number followed by its unit.

(Q) What cytotoxicity at 70.5 h value was documented for this compound, CCC(NC(=O)C1CCN(S(C)(=O)=O)CC1)c1ccc(OC)cc1 (centres undefined) ?
(A) -4.59%

(Q) I am curious: what cytotoxicity at 70.5 h value has been reported for Cc1ccc(CN2C[C@H]3C[C@H](C(=O)NCC4CC4)N(C)[C@H]3C2)o1 ?
(A) -12.6%

(Q) Query (compound): Cc1ccc(N2CCC3(CCN(C(=O)c4ccsc4)C3)CC2)nn1 ; field requested: cytotoxicity at 70.5 h
(A) -12.9%

(Q) Value lookup for cytotoxicity at 70.5 h; key = CC(C)c1nnc2n1CCN(C(=O)c1cn(-c3ccccc3)nn1)C2
(A) -6.83%

(Q) Dear colleague, I am looking for the recorded cytotoxicity at 70.5 h of the following compound: Cc1cc(S(=O)(=O)N2CC[C@@H](O)C2)c(Cl)cc1F
(A) -6.21%

(Q) If you can, please state the reported cytotoxicity at 70.5 h value of CC(C)NC(=O)[C@]12COC[C@H]1CN(Cc1cnn(C)c1)C2 .
(A) -4.74%

(Q) Returns the measured cytotoxicity at 70.5 h for the input compound. Input: COc1ccc(C(=O)NCCCOC(C)c2ccccc2)c(OC)c1 (centres undefined)
(A) -11.1%

(Q) Consider the compound CC(C)(C)NC(=O)Cn1cc(C(N)=O)c(-c2ccccc2)n1 and give its measured cytotoxicity at 70.5 h.
(A) -3.41%

(Q) I would be grateful if you could share the reported cytotoxicity at 70.5 h for CN(C)c1ccc(C(=O)Nc2ccn(CCc3ccncc3)n2)cc1 .
(A) 15%
